# assay name: in vivo
# setup conditions: rat, po, 1 mg/kg
reported property: bioavailability (%)

# smiles structure, reported property, scale unit, recorded value
data = [
    ("Cc1cccc(C)c1CNc1cc(-n2ccccc2=O)cn2c(CO)c(C)nc12", "bioavailability", "%", 28),
    ("Cc1cn2cc(-n3ccccc3=O)cc(NCc3c(C)cccc3C)c2n1", "bioavailability", "%", 18),
    ("Cc1cccc(C)c1CNc1cc(-n2cncn2)cn2c(C)c(C)nc12", "bioavailability", "%", 21),
]

----------
# setup conditions: buffer, pH 7.4
reported property: CHI

# compound, CHI
records = [
    ("Cc1cccc(CNc2cc(-n3ccccc3=O)cn3c(C)c(C)nc23)c1", 2.17),
    ("Cc1cccc(C)c1CNc1cc(-n2cnccc2=O)cn2c(C)c(C)nc12", 2.33),
    ("Cc1cccc(C)c1CNc1cc(-n2cc(C(N)=O)ccc2=O)cn2c(C)c(C)nc12", 1.71),
    ("Cc1nc2c(NCc3ccc(F)cc3Cl)cc(-n3ccccc3=O)cn2c1C", 2.26),
]

(1) Cc1nc2c(NCc3ccc(F)cc3Cl)cc(-n3cncn3)cn2c1C
(2) Cc1nc2c(NCc3cccnc3)cc(-n3ccccc3=O)cn2c1C
I need your help: which of the pair 1 , 2 has higher CHI? Write down the label attached to your selection.
1

(A) COc1ccccc1CNc1cc(-n2ccccc2=O)cn2c(C)c(C)nc12
(B) Cc1cccc(C)c1CNc1cc(N2CCCCC2=O)cn2c(C)c(C)nc12
I need your help: which of the pair A , B has higher CHI? Write down the label attached to your selection.
B
(B: 2.79, A: 1.93)

----------
# assay name: in vivo
# setup conditions: dog, iv, 1 mg/kg
reported property: half-life (h)

(P) Cc1cccc(C)c1CNc1cc(-n2cncn2)cn2c(C)c(C)nc12
(Q) Cc1cccc(C)c1CNc1cc(-n2ccccc2=O)cn2c(CO)c(C)nc12
I need your help: which of the pair P , Q has higher half-life? Write down the label attached to your selection.
P
(P: 2.3 h, Q: 1.6 h)

----------
# assay name: in vivo
# setup conditions: rat, iv, 1 mg/kg
reported property: half-life (h)

(I) Cc1cccc(C)c1CNc1cc(-n2ccccc2=O)cn2c(CO)c(C)nc12
(II) Cc1cn2cc(-n3ccccc3=O)cc(NCc3c(C)cccc3C)c2n1
I need your help: which of the pair I , II has higher half-life? Write down the label attached to your selection.
I

----------
# assay name: in vivo
# setup conditions: rat, iv, 1 mg/kg
reported property: Vd (L/kg)

# smiles structure, scale unit, Vd
records = [
    ("Cc1cccc(C)c1CNc1cc(-n2ccccc2=O)cn2c(CO)c(C)nc12", "L/kg", 1),
]

(P) Cc1cn2cc(-n3ccccc3=O)cc(NCc3c(C)cccc3C)c2n1
(Q) Cc1cccc(C)c1CNc1cc(-n2cncn2)cn2c(C)c(C)nc12
I need your help: which of the pair P , Q has higher Vd? Write down the label attached to your selection.
Q
(Q: 3.5 L/kg, P: 1.8 L/kg)

----------
# assay name: in vivo
# setup conditions: dog, po, 1 mg/kg
reported property: bioavailability (%)

(I) Cc1cccc(C)c1CNc1cc(-n2ccccc2=O)cn2c(CO)c(C)nc12
(II) Cc1cccc(C)c1CNc1cc(-n2cncn2)cn2c(C)c(C)nc12
Please indicate which entry, I or II , has the lower recorded bioavailability value. Write down the label attached to your selection.
II
